target: Metallo-beta-lactamase type 2 (Bacteria) (UniProt C7C422); assay: Inhibition of bacterial NDM-1 assessed as substrate hydrolysis at 50 uM using imipenem as substrate by spectrophotometric analysis relative to control
Sequence (C7C422 whole entry): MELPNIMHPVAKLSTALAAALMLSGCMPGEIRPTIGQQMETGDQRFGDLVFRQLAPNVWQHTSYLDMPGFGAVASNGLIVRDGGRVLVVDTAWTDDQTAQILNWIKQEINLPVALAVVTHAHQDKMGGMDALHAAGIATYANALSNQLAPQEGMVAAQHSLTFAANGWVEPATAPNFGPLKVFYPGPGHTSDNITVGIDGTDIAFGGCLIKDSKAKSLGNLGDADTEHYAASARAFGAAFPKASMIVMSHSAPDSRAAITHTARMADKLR
MEASURED_PARAMETER: inhibition (%)

MOL_SMILES: O=C1/C(=C/c2cn(Cc3cccc(Br)c3)c3ccccc23)Oc2cc(O)cc(O)c21
MEASURED_PARAMETER: inhibition
MEASUREMENT: 69
//
MOL_SMILES: COc1ccc(/C=C2\Oc3cc(O)cc(O)c3C2=O)cc1
MEASURED_PARAMETER: inhibition
MEASUREMENT: 38
//
MOL_SMILES: COc1ccc(/C=C2\Oc3c(O)cccc3C2=O)cc1
MEASURED_PARAMETER: inhibition
MEASUREMENT: 20
//
MOL_SMILES: CC(C)(C)CCn1cc(/C=C2\Oc3cc(O)cc(O)c3C2=O)c2ccccc21
MEASURED_PARAMETER: inhibition
MEASUREMENT: 11.2

I: O=C1/C(=C/c2ccc(O)c(O)c2)Oc2cccc(O)c21
II: Cn1cc(/C=C2\Oc3cc(O)ccc3C2=O)c2cc(Br)ccc21
III: O=C1/C(=C/c2cn(CC3CCCCC3)c3ccccc23)Oc2cc(O)cc(O)c21
List the 3 entries from lowest inhibition to highest inhibition value. Thanks in advance for listing the labels in the requested order.
I, II, III
(I: 12%, II: 18%, III: 72%)

====

test system: Bacteria; experiment: Inhibition of bacterial VIM-2 assessed as substrate hydrolysis at 50 uM using imipenem as substrate by spectrophotometric analysis relative to control
MEASURED_PARAMETER: inhibition

Worked examples, 5 compounds total:
MOL_SMILES: Cn1cc(/C=C2\Oc3cc(O)cc(O)c3C2=O)c2ccccc21
inhibition: < 10%

MOL_SMILES: O=C1/C(=C/c2ccc(N3CCCCC3)cc2)Oc2cc(O)cc(O)c21
inhibition: 17%

MOL_SMILES: O=C1/C(=C/c2ccc(-n3ccnc3)cc2)Oc2cc(O)cc(O)c21
inhibition: < 10%

MOL_SMILES: COc1cc(O)ccc1/C=C1\Oc2ccccc2C1=O
inhibition: < 10%

MOL_SMILES: O=C1/C(=C/c2ccc3ccccc3c2)Oc2c1ccc(O)c2O
inhibition: < 10%

Given the compound COc1ccc(/C=C2\Oc3cc(O)cc(O)c3C2=O)c(OC)c1 , what is its reported inhibition?
< 10%

====

target: Metallo-beta-lactamase type 2 (Bacteria); assay: Inhibition of bacterial NDM-1 assessed as substrate hydrolysis at 50 uM using imipenem as substrate by spectrophotometric analysis relative to control
MEASURED_PARAMETER: inhibition (%)

Worked examples, 2 compounds total:
MOL_SMILES: O=C1/C(=C/c2cn(Cc3ccc(Br)cc3)c3ccccc23)Oc2cc(O)cc(O)c21
inhibition (%): 44
//
MOL_SMILES: COc1ccc(/C=C2\Oc3cc(O)cc(O)c3C2=O)cc1OC
inhibition (%): 23

1: CN(C)c1ccc(/C=C2\Oc3cc(O)cc(O)c3C2=O)c(O)c1
2: COc1ccc(/C=C2\Oc3cc(O)cc(O)c3C2=O)c(OC)c1OC
I need your help: which of the pair 1 , 2 has higher inhibition? // caller expects the label of the chosen entry
1

====

biological target: Metallo-beta-lactamase type 2 (Bacteria) (UniProt C7C422); test: Inhibition of bacterial NDM-1 assessed as substrate hydrolysis at 50 uM using imipenem as substrate by spectrophotometric analysis relative to control
MEASURED_PARAMETER: inhibition (%)

Worked examples, 5 molecules total:
MOL_SMILES: CCCCOc1ccc(/C=C2\Oc3cc(O)cc(O)c3C2=O)cc1
inhibition, %: 41

MOL_SMILES: COc1cc(OC)c2c(c1)O/C(=C\c1ccc(-c3cccs3)cc1)C2=O
inhibition, %: 39

MOL_SMILES: Cn1cc(/C=C2\Oc3cc(O)cc(O)c3C2=O)c2ccccc21
inhibition, %: 46

MOL_SMILES: COc1ccc(/C=C2\Oc3c(ccc(O)c3O)C2=O)c(O)c1
inhibition, %: 84.5

MOL_SMILES: O=C(O)c1ccc(/C=C2\Oc3c(O)cccc3C2=O)cc1
inhibition, %: 24

a: CC(C)CCn1cc(/C=C2\Oc3cc(O)cc(O)c3C2=O)c2ccccc21
b: O=C1/C(=C/c2ccc3ccccc3c2)Oc2c1ccc(O)c2O
I need your help: which of the pair a , b has higher inhibition? // caller expects the label of the chosen entry
b
(b: 50%, a: 18%)

====

test system: Bacteria; experiment: Inhibition of bacterial IMP-1 assessed as substrate hydrolysis at 50 uM using imipenem as substrate by spectrophotometric analysis relative to control
MEASURED_PARAMETER: inhibition (%)

Worked examples, 2 compounds total:
MOL_SMILES: CC(C)(C)CCn1cc(/C=C2\Oc3cc(O)cc(O)c3C2=O)c2ccccc21
inhibition / %: 28
--
MOL_SMILES: O=C1/C(=C/c2ccc3ccccc3c2)Oc2c1ccc(O)c2O
inhibition / %: 19

P: O=C1/C(=C/c2ccc(N3CCCCC3)cc2)Oc2cc(O)cc(O)c21
Q: O=C1/C(=C/c2cn(CCCc3ccccc3)c3ccccc23)Oc2cc(O)cc(O)c21
I need your help: which of the pair P , Q has higher inhibition? // caller expects the label of the chosen entry
Q
(Q: 41%, P: 20%)

====

Reported inhibition is given for each of the following molecules.
tested on: Bacteria; assay: Inhibition of bacterial VIM-2 assessed as substrate hydrolysis at 50 uM using imipenem as substrate by spectrophotometric analysis relative to control

Worked examples, 6 molecules total:
MOL_SMILES: O=C1/C(=C/c2c(O)cc(O)cc2O)Oc2c(O)cccc21
inhibition: < 10%
--
MOL_SMILES: COc1ccc(/C=C2\Oc3ccccc3C2=O)c(OC)c1OC
inhibition: < 10%
--
MOL_SMILES: CC[C@H](C)Cn1cc(/C=C2\Oc3cc(O)cc(O)c3C2=O)c2ccccc21
inhibition: < 10%
--
MOL_SMILES: O=C1/C(=C/c2ccc(O)cc2)Oc2cc(O)cc(O)c21
inhibition: < 10%
--
MOL_SMILES: O=C1/C(=C/c2cn(CC3CCCCC3)c3ccccc23)Oc2cc(O)cc(O)c21
inhibition: < 10%
--
MOL_SMILES: Cc1ccc(O)c(/C=C2\Oc3cc(O)cc(O)c3C2=O)c1
inhibition: < 10%

Given the molecule O=C(O)c1ccc(/C=C2\Oc3c(O)cccc3C2=O)cc1 , what is its reported inhibition?
< 10%

Given the molecule CC(C)(C)CCn1cc(/C=C2\Oc3cc(O)cc(O)c3C2=O)c2ccccc21 , what is its reported inhibition?
< 10%

Given the molecule O=C1/C(=C/c2ccc(O)cc2O)Oc2cc(O)cc(O)c21 , what is its reported inhibition?
< 10%

Given the molecule O=C1/C(=C/c2ccc(F)cc2)Oc2c(O)cccc21 , what is its reported inhibition?
< 10%

====

test system: Bacteria; assay: Inhibition of bacterial IMP-1 assessed as substrate hydrolysis at 50 uM using imipenem as substrate by spectrophotometric analysis relative to control
MEASURED_PARAMETER: inhibition (%)

Worked examples, 8 compounds total:
MOL_SMILES: O=C1/C(=C/c2ccc(O)cc2)Oc2cc(O)cc(O)c21
MEASUREMENT: 12.4
--
MOL_SMILES: COc1ccc(/C=C2\Oc3c(ccc(O)c3O)C2=O)c(OC)c1
MEASUREMENT: 28
--
MOL_SMILES: O=C1/C(=C/c2ccccc2O)Oc2cc(O)cc(O)c21
MEASUREMENT: 14
--
MOL_SMILES: COc1ccc(/C=C2\Oc3cc(O)cc(O)c3C2=O)c(OC)c1
MEASUREMENT: 43.6
--
MOL_SMILES: NCCN[C@H]1CC[C@@H](CC(=O)N[C@H]2Cc3cccc(C(=O)O)c3OB2O)CC1
MEASUREMENT: 41
--
MOL_SMILES: CCCCn1cc(/C=C2\Oc3cc(O)cc(O)c3C2=O)c2cc(O)ccc21
MEASUREMENT: 30
--
MOL_SMILES: Cn1cc(/C=C2\Oc3cc(O)cc(O)c3C2=O)c2ccccc21
MEASUREMENT: 28
--
MOL_SMILES: CC(C)CCn1cc(/C=C2\Oc3cc(O)cc(O)c3C2=O)c2ccccc21
MEASUREMENT: 47.1

P: O=C1/C(=C/c2ccc(O)cc2O)Oc2cc(O)cc(O)c21
Q: CN(C)c1ccc(/C=C2\Oc3cc(O)cc(O)c3C2=O)c(O)c1
// compare measured inhibition between P and Q ; output the lower one // caller expects the label of the chosen entry
P

a: COc1cc(O)ccc1/C=C1\Oc2cc(O)ccc2C1=O
b: O=C1/C(=C/c2cn(Cc3ccc(Br)cc3)c3ccccc23)Oc2cc(O)cc(O)c21
// compare measured inhibition between a and b ; output the lower one // caller expects the label of the chosen entry
a

a: CN1CCN(c2ccc(/C=C3\Oc4cc(O)ccc4C3=O)cc2)CC1
b: COc1ccc(/C=C2\Oc3c(ccc(O)c3O)C2=O)c(O)c1
// compare measured inhibition between a and b ; output the lower one // caller expects the label of the chosen entry
a

I: Cc1cccc(Cn2cc(/C=C3\Oc4cc(O)cc(O)c4C3=O)c3ccccc32)c1
II: COc1cc(OC)c2c(c1)O/C(=C\c1ccc(OC)c(OC)c1OC)C2=O
I need your help: which of the pair I , II has higher inhibition? // caller expects the label of the chosen entry
I
(I: 43%, II: 17%)
